biological target: hAT1R (Homo sapiens, UniProt P30556); experiment: cell-based; settings: agonist mode; read-out: BRET P63 EC50
Below, each entry is listed alongside its reported EC50.
Give the number; nM is assumed, so skip it.

Example entries and their recorded answers appear below.
# COMPOUND, EC50 (nM)
data = [
    ("CCc1nc2c(C)cc(C)nc2n1Cc1ccc(-c2cc(-c3cc(OC)ccn3)ccc2-c2nn[nH]n2)cc1", 4.2),
    ("CCc1nc2c(C)cc(C)nc2n1Cc1ccc(-c2cc(Oc3ncccc3F)ccc2-c2nn[nH]n2)cc1", 38.3),
    ("CCc1nc2c(C)cc(C)nc2n1Cc1ccc(-c2cc(N3CCC4(CCOC4)C3)ccc2-c2nn[nH]n2)cc1 (stereo not shown)", 278),
    ("CCCC1=NC2(CCCC2)C(=O)N1Cc1ccc(-c2cc(-c3ccccc3)ccc2-c2nn[nH]n2)cc1", 66.5),
    ("CCCCC(=O)N(Cc1ccc(-c2cc(-c3cc(C)ccn3)ccc2-c2nn[nH]n2)cc1)[C@H](C(=O)O)C(C)C", 103),
    ("CCc1nc2c(C)cc(C)nc2n1Cc1ncc(-c2cc(-c3cccc(C)c3)ccc2C(=O)O)cn1", 7620),
]

What does the data say about its EC50? Entry: `CCc1nc2c(C)cc(C)nc2n1Cc1ccc(-c2cc(-c3cccc(C)c3)ccc2-c2nn[nH]n2)c(F)c1`
7.5

Given the compound `CCc1nc2c(C)cc(C)nc2n1Cc1ccc(-c2cc(Oc3cc(N)ccn3)ccc2-c2nn[nH]n2)cc1` , what is its reported EC50?
9.5

Could you share which EC50 value was measured for `CCc1nc2c(C)cc(C)nc2n1Cc1ccc(-c2cc(-c3ccccc3O)ccc2-c2nnn[nH]2)cn1` ?
25.6

Requested read-out: EC50. Entry: `CCc1nc2c(C)cc(C)nc2n1Cc1ccc(-c2cc(-c3cccc(C)c3)ccc2-c2nnn[nH]2)nc1`
21.1

Fill in the blank: the reported EC50 of `CCc1nc2c(C)cc(C)nc2n1Cc1ccc(-c2cc(-c3cccc(C)c3)ccc2-c2nnn[nH]2)nn1` is ____.
101

For the compound `CCCC1=NC2(CCCC2)C(=O)N1Cc1ccc(-c2cc(-c3cc(OC)ccn3)ccc2-c2nn[nH]n2)cc1` , what EC50 is on record?
11.9

# lookup: EC50 of `CCCCC(=O)N(Cc1ccc(-c2cc(-c3cccc(OC)n3)ccc2-c2nn[nH]n2)cc1)C1(C(=O)O)CCCCC1`
307

// returns reported EC50 for input `CCc1nc2c(C)cc(C)nc2n1Cc1cnc(-c2cc(-c3ccccc3)ccc2-c2nnn[nH]2)cn1`
168

Can you share its EC50? I mean this compound: CCCCC1=NC2(CCOC2)C(=O)N1Cc1ccc(-c2cc(-c3cc(C)ccn3)ccc2-c2nnn[nH]2)cc1 (single isomer, unassigned)
57.7

Fill in the blank: the reported EC50 of `CCc1nc2c(C)cc(C)nc2n1Cc1ccc(-c2cc(-c3cc(C)ccn3)ccc2C(=O)O)cc1` is ____.
160

###

// pEC50 lookup, one value per entry
Target: AGTR1 (Homo sapiens)
Construct: host or cells: Pathunter CHO-K1 AGTR1 β-arrestin cell line (CHO-K1)
Sequence (P30556 1-359): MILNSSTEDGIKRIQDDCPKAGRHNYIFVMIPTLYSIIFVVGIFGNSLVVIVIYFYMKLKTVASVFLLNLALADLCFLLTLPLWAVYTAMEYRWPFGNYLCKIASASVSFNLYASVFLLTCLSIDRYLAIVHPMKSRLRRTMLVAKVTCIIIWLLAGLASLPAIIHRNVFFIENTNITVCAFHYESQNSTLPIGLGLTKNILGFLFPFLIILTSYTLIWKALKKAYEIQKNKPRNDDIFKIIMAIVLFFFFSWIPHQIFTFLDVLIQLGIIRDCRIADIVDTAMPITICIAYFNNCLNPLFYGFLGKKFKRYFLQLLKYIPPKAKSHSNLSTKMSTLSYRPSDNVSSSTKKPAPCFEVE
Assay: DiscoveRx β-arrestin2 recruitment assay (enzyme complementation, Pathunter CHO-K1 AGTR1 β-arrestin cell line)
Format: cell-based
Settings: DiscoveRx β-arrestin2 recruitment
Where a name gives a salt, the structure may show the parent alone.
Quick note: pEC50 means taking -log10 of the concentration in moles per liter.

Give its pEC50 value. Item: CCCCc1ncc(C(=O)O)n1Cc1ccc(-c2cc(-c3ccccc3)ccc2-c2nn[nH]n2)cc1 [Example 345, TFA salt]
7.74

Item under review: CCCCC(=O)N(Cc1ccc(-c2cc(-c3cc(C)ccn3)ccc2-c2nn[nH]n2)cc1)[C@H](C(=O)O)C(C)C [Example 445] . Reported pEC50?
7.42

Can you look up the measured pEC50 of CCc1nc2c(C)cc(C)nc2n1Cc1ccc(-c2cc(-c3cncn3C)ccc2-c2nn[nH]n2)cc1 [Example 58] for me?
7.06

Any idea what its pEC50 is? The molecule is CC1=NC2(CCOCC2)C(=O)N1Cc1ccc(-c2cc(-c3ccccc3)ccc2-c2nn[nH]n2)cc1 [Example 172]
6.71

###

Target: hAT1R (Homo sapiens)
Sequence (P30556 1-359): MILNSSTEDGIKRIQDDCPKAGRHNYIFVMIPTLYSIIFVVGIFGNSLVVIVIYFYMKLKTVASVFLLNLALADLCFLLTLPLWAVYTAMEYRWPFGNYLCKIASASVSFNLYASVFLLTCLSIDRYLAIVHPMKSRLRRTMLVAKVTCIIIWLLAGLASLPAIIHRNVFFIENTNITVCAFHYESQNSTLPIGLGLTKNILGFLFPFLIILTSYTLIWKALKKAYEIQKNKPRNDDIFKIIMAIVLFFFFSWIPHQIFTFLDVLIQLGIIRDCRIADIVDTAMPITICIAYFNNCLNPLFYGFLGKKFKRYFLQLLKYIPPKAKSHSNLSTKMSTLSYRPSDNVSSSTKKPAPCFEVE
Experiment: cell-based
Details: Low AT1R Expression; read-out: BRET β-Arrestin2 Low AT1R Expression EC50
molecules and their reported pEC50
Please express pEC50 as -log10 of the molar concentration.

Some solved entries appear below for comparison.
# MOLECULE, VALUE_OBSERVED
data = [
    ("CCc1nc2c(C)cc(C)nc2n1Cc1ccc(-c2cc(-c3ccc(C(=O)N(C)C)cc3)ccc2-c2nn[nH]n2)cc1 [Example 11]", 7.45),
    ("CCCC1=NC2(CCCC2)C(=O)N1Cc1ccc(-c2cc(-c3cc(OC)ccn3)ccc2-c2nn[nH]n2)cc1 [Example 115]", 7.77),
    ("CCc1nc2c(C)cc(C)nc2n1Cc1ccc(-c2cc(-c3ccccn3)ccc2-c2nn[nH]n2)cc1 [Example 30]", 7.84),
    ("CCCC1=NC2(CCCC2)C(=O)N1Cc1ccc(-c2cc(-c3cc(C)ccn3)ccc2-c2nn[nH]n2)cc1 [Example 116]", 7.76),
    ("CCc1nc2c(C)cc(C)nc2n1Cc1ccc(-c2cc(-c3cccc(C(F)(F)F)n3)ccc2-c2nn[nH]n2)cc1 [Example 61]", 6.97),
]

Query (molecule): CCc1nc2c(C)cc(C)nc2n1Cc1ccc(-c2cc(-c3cc(C)c(F)cn3)ccc2-c2nn[nH]n2)cc1 [Example 66] ; field requested: pEC50
7.78

Can you look up the measured pEC50 of CCc1nc2c(C)cc(C)nc2n1Cc1ccc(-c2cc(-c3ccccc3C)ccc2-c2nn[nH]n2)cc1 [Example 2] for me?
7.96

Any idea what pEC50 was measured for Cc1ccnc(-c2ccc(-c3nn[nH]n3)c(-c3ccc(CN4C(=O)C5(CCCC5)N=C4C(C)C)cc3)c2)c1 [Example 118] ?
6.76

# lookup: pEC50 of CCC1=NC2(CCCC2)C(=O)N1Cc1ccc(-c2cc(-c3ccccc3)ccc2-c2nn[nH]n2)cc1 [Example 112]
6.76

Query: pEC50; subject: CCc1nc2c(C)cc(C)nc2n1Cc1ccc(-c2cc(C3CCCCO3)ccc2-c2nn[nH]n2)cc1 (single isomer, unassigned) [Example 78]
7.43

Looking for the measured pEC50 of CCCCC1=NC2(CCOC2)C(=O)N1Cc1ccc(-c2cc(-c3ccccc3F)ccc2-c2nnn[nH]2)cc1 (single isomer, unassigned) [Example 148] , can you help?
6.85

###

target: hAT1R (Homo sapiens, UniProt P30556); test: BRET β-arrestin2 biosensor assay, higher receptor expression (hAT1R 5 ng/well), HEK293 cells; type: cell-based; conditions: High AT1R Expression
Quick reference for EC50 among some compounds
Report only the number, with the unit µM understood.

The examples below pair each entry with its known result.
# COMPOUND, EC50, µM
measured = [
    ("CCCCC(=O)N(Cc1ccc(-c2cc(-c3ccccc3)ccc2-c2nn[nH]n2)cc1)C1(C(=O)O)CCOCC1 [Example 276]", 0.0779),
    ("CCCCc1ncc(C(=O)NCc2ccccn2)n1Cc1ccc(-c2cc(-c3ccccc3)ccc2-c2nn[nH]n2)cc1 [Example 371]", 0.011),
    ("CCCCC(=O)N(Cc1ccc(-c2cc(-c3ccccc3)ccc2-c2nn[nH]n2)cn1)[C@H](C(=O)O)C(C)C [Example 431]", 1.59),
]

# input for lookup
Need EC50, item CCCc1nc(CC)c(C(N)=O)n1Cc1ccc(-c2cc(-c3ccccc3)ccc2-c2nn[nH]n2)cc1 [Example 398]
0.0134

Values from patent US12037324B2
